# Test system: 8XTBD luciferase reporter
# ASSAY COMMENT: YAP Reporter Assay
# Type: cell-based
# COND: Homo sapiens, HEK-293T; HEK293T cells stably transfected with 8XTBD luciferase reporter and pRLTK; 24-hr incubation; starting from 3 μM, 1:3 dilution, 10 points; read-out: Firefly Luciferase IC50
Item-by-item account of IC50

- COMPOUND: "CNS(=O)(=O)c1ccc(Nc2ccc(Cl)c(Cl)c2)c(-c2cn(C)cn2)c1 [Compound 140]"
  SUBJECT OF TEST: "8XTBD luciferase reporter"
  IC50: "≤ 0.1 µM"
- COMPOUND: "CNS(=O)(=O)c1ccc(Nc2cccc(F)c2F)c(-c2nnnn2C)c1 [Compound 106]"
  SUBJECT OF TEST: "8XTBD luciferase reporter"
  IC50: "> 3 µM"
- COMPOUND: "CNS(=O)(=O)c1ccc(NC2CCCCC2)c(-n2nccn2)c1 [Compound 81]"
  SUBJECT OF TEST: "8XTBD luciferase reporter"
  IC50: "≤ 0.1 µM"
- COMPOUND: "Cn1nnc(-c2cc(S(C)(=O)=O)ccc2NC2CCCCC2)n1 [Compound 5]"
  SUBJECT OF TEST: "8XTBD luciferase reporter"
  IC50: "0.1 to 1 µM"
- COMPOUND: "Cn1cc(-c2cc(S(C)(=O)=O)ccc2NC2CCCCC2)cn1 [Compound 7]"
  SUBJECT OF TEST: "8XTBD luciferase reporter"
  IC50: "> 3 µM"
- COMPOUND: "CNS(=O)(=O)c1ccc(NC2CCCCC2)c(-c2nnc(C)o2)c1 [Compound 105]"
  SUBJECT OF TEST: "8XTBD luciferase reporter"
  IC50: "≤ 0.1 µM"

Entry CNS(=O)(=O)c1ccc(Nc2ccccc2OC(F)(F)F)c(-c2nnnn2C)c1 [Compound 101] — recorded IC50 = > 3 µM

Entry under test: CCCn1nnc(-c2cc(S(=O)(=O)NC)ccc2NC2CCCCC2)n1 [Compound 15] . Its IC50 was ≤ 0.1 µM

Noted for CNS(=O)(=O)c1ccc(NC2CCCCC2)c(-c2nnnn2C2CCCNC2)c1 (stereo not drawn) [Compound 75] : its IC50 reads 1 to 3 µM
